Assignment: determine reported pIC50 for the given binders.
biological target: T1, recombinant integrin α4β1 (R&D Systems, 5397-A3-050 [sic]) (UniProt P13612 34-970; P05556 21-728); assay: competition ELISA: VCAM-Fc on coated α4β1
T1 construct: coated on the ELISA plate; also called a4b1; α4β1 integrin
T1 sequence (P13612 34-970, chain 1 of 2): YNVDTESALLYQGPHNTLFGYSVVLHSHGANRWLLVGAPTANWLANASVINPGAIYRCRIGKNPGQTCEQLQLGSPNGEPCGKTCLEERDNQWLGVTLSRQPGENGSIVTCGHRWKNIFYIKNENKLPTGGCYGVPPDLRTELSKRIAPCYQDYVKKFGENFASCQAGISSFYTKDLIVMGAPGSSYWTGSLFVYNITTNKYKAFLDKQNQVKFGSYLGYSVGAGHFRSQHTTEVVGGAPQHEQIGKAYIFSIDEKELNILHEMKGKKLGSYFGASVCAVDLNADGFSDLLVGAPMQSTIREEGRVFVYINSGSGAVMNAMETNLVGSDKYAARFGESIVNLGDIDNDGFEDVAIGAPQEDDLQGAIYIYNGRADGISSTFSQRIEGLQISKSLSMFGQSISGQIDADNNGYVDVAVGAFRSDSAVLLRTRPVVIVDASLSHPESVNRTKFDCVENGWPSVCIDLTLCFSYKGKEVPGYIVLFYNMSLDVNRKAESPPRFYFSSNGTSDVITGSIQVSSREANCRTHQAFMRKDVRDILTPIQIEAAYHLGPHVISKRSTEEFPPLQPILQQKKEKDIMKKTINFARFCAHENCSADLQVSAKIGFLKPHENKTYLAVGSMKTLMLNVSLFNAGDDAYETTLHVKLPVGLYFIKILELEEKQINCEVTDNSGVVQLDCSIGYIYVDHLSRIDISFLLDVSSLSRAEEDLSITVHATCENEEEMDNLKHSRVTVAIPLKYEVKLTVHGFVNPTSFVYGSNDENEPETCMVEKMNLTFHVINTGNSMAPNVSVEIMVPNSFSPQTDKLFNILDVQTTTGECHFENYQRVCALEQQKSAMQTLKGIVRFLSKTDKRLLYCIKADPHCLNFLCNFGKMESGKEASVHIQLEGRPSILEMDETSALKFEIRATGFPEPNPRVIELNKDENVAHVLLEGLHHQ
T1 sequence (P05556 21-728, chain 2 of 2): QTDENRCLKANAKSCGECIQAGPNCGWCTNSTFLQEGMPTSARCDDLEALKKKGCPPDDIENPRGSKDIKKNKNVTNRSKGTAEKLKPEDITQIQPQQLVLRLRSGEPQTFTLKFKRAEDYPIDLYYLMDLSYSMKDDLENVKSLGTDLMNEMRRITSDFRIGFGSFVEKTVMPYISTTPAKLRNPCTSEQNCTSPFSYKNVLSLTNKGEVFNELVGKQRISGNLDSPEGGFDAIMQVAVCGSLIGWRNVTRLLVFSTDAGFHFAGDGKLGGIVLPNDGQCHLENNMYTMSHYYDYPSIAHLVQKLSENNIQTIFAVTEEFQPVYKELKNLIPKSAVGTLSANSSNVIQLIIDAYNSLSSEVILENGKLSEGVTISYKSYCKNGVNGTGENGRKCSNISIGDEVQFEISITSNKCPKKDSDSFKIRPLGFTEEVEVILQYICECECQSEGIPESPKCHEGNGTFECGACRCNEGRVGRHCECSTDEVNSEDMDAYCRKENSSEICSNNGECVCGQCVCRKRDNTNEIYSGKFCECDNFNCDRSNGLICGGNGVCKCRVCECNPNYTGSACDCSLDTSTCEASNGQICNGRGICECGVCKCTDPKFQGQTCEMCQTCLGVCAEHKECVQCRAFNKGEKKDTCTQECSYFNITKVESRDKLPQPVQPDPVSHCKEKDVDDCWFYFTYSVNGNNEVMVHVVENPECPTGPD
*1 amine or outer side, *2 acyl side, *3 side chain or, on linkers, in order; H or OH if unused. Bridges are numbered along the chain shown (N, C = ends). [ ]: non-standard residue; d: D form. X3 = 3‑aminomethyl‑4‑(4-(1-piperazinyl)phenyl)benzoic acid, O=C(c1ccc(-c2ccc(N3CCN([*:3])CC3)cc2)c(CN[*:1])c1)[*:2]; X13 = 3‑aminomethyl‑4‑bromo‑benzoic acid, O=C(c1ccc(Br)c(CN[*:1])c1)[*:2]; Mamb(4-(4-pyridyl)) = O=C(c1ccc(-c2ccncc2)c(CN[*:1])c1)[*:2]; 3Amb = NCc1cccc(C(=O)O)c1
For clarity, pIC50 is expressed as the negative log10 of concentration in mol/L.

# get_value(readout='pIC50', item= PY[Mamb(4-(4-pyridyl))]LDT (bridge N-C; not fully specified (bridges); printed as Pro Tyr X Leu Asp Thr, macrocycle (nacellin)) [Compound No. 337] ) 6.75

# get_value(readout='pIC50', item= PY[X13]LDT (bridge N-C; not fully specified (bridges), macrocycle (nacellin)) [Compound No. 336] ) 6.04

# get_value(readout='pIC50', item= PY[3‑aminomethyl‑4‑(3-aminomethyl-phenyl)‑benzoic acid]LDT (bridge N-C; not fully specified (bridges); printed as Pro Tyr X Leu Asp Thr, macrocycle (nacellin)) [Compound No. 339] ) 6.52

# get_value(readout='pIC50', item= P[X3](AlexaFluor 647)LDT (bridge N-C; not fully specified (bridges), macrocycle (nacellin), AlexaFluor 647-labelled) [Compound No. 386] ) 7.47

# get_value(readout='pIC50', item= P[3‑aminomethyl‑4‑(2-(1-piperazinyl)phenyl)‑benzoic acid]LDT (bridge N-C; not fully specified (bridges); printed as Pro X Leu Asp Thr, macrocycle (nacellin)) [Compound No. 348] ) 7.39

# get_value(readout='pIC50', item= P[3‑aminomethyl‑4‑(2-aminomethylphenyl)‑benzoic acid]LDT (bridge N-C; not fully specified (bridges); printed as Pro X Leu Asp Thr, macrocycle (nacellin)) [Compound No. 381] ) 8.00

# get_value(readout='pIC50', item= PY[3‑aminomethyl‑4‑(2,5-dimethyl-isoxazole)‑benzoic acid]LDT (bridge N-C; not fully specified (bridges); printed as Pro Tyr X Leu Asp Thr, macrocycle (nacellin)) [Compound No. 338] ) 6.75

# get_value(readout='pIC50', item= P[3‑aminomethyl‑(4-methylpyrazole-3-yl)‑benzoic acid]LDT (bridge N-C; not fully specified (bridges); printed as Pro X Leu Asp Thr, macrocycle (nacellin)) [Compound No. 345] ) 7.28

# get_value(readout='pIC50', item= P[3Amb]LDT (linker N-C via formula (I) linker ‑N(R1)‑C(R2)(R3)‑C(R4)(R5)‑: R1 H, R2 H, R3 CH3 (S), R4 H, R5 C(O)‑NH‑tert‑Butyl (S), macrocycle (nacellin)) [Compound No. 358] ) 5.96

# get_value(readout='pIC50', item= P[3‑aminomethyl‑4‑(5-quinolinyl)‑benzoic acid]LDT (bridge N-C; not fully specified (bridges); printed as Pro X Leu Asp Thr, macrocycle (nacellin)) [Compound No. 347] ) 7.52
